Taken from ChEMBL document CHEMBL3862012.

- Measurement protocol: Cytotoxicity against human NCI-H23 cells assessed as growth inhibition at 10 uM after 48 hrs by SRB assay relative to control
- Assay type: functional
- Measurement parameters: NCI-H23, 48 h, read-out: GI
Would you mind labelling by inhibition of growth at 10 µM? At or over 60% is Condition met, under is Condition not met.

> print(dat)
                      smiles.representation         class.name
1        COc1ccc(CN2c3ccccc3Oc3ccccc32)cc1F  Condition not met
2        COc1ccc(CN2c3ccccc3Sc3ccccc32)cc1F      Condition met
3      COc1ccc(CN2c3ccccc3Sc3ccccc32)c(F)c1  Condition not met
4        COc1ccc(CN2c3ccccc3Sc3ccccc32)cc1O      Condition met
5  COc1ccc(CN2c3ccccc3Sc3ccccc32)c(C(F)(F)F)c1  Condition not met
6        COc1ccc(CN2c3ccccc3Oc3ccccc32)cc1O      Condition met

====

- Measurement protocol: Cytotoxicity against human NCI-ADR-RES cells assessed as growth inhibition after 48 hrs by SRB assay
- Type: functional
Value type: GI50 (nM)

> print(dat)
                      smiles.representation  measurement
1        COc1ccc(CN2c3ccccc3Sc3ccccc32)cc1O          291
2  COc1ccc(CN2c3ccccc3Sc3ccccc32)c(C(F)(F)F)c1          462
3        COc1ccc(CN2c3ccccc3Sc3ccccc32)cc1F          326
4       COc1ccc(CN2c3ccccc3CCc3ccccc32)cc1F          456

====

- Measurement protocol: Cytotoxicity against human SF268 cells assessed as growth inhibition at 10 uM after 48 hrs by SRB assay relative to control
- Type: functional
- Measurement parameters: SF-268, 48 h, read-out: GI
Listed here: items and their measured inhibition of growth at 10 µM.
Value type: inhibition of growth at 10 µM (%)

> print(dat)
                  smiles.representation                     value.type  result.unit  measurement
1    COc1ccc(CN2c3ccccc3Oc3ccccc32)cc1F  inhibition of growth at 10 µM            %           15
2  COc1ccc(CN2c3ccccc3Sc3ccccc32)c(F)c1  inhibition of growth at 10 µM            %           48
3    COc1ccc(CN2c3ccccc3Sc3ccccc32)cc1F  inhibition of growth at 10 µM            %           61
4   COc1ccc(CN2c3ccccc3CCc3ccccc32)cc1F  inhibition of growth at 10 µM            %           61

====

Listed here: items and their measured inhibition.
- Species: Ovis aries
- Measurement protocol: Inhibition of sheep brain tubulin polymerization at 100 uM by DAPI staining-based fluorimetric method relative to control
Value type: inhibition (%)

> print(dat)
                      smiles.representation  result.unit  measurement
1  COc1ccc(CN2c3ccccc3Sc3ccccc32)c(C(F)(F)F)c1            %           15
2        COc1ccc(CN2c3ccccc3Sc3cccnc32)cc1F            %           72
3       COc1ccc(CN2c3ccccc3CCc3ccccc32)cc1F            %           58
